The reported measurements were obtained from patent US11400079B2.

tested on: A. baumannii ATCC 17978-PNT-320; experiment: MIC antibacterial assay (iron depleted media); type: cell-based, Acinetobacter baumannii; conditions: Acinetobacter baumannii, ATCC17978
Counter-ions that a name gives are not always drawn.

compound	units_text	lt_gt_eq	MIC
CC(C)(O/N=C(\C(=O)NC1C(=O)N(S(=O)(=O)O)[C@H]1CSCCN)c1cnc(N)s1)C(=O)O (mixture of isomers) [Compound 39, potassium salt]	µM	>	50
C[C@H]1[C@H](NC(=O)/C(=N\OC(C)(C)C(=O)O)c2csc(N)n2)C(=O)N1S(=O)(=O)O [Aztreonam, aztreonam, reference compound]	µM	=	50
CC(C)(O/N=C(\C(=O)NC1C(=O)N(S(=O)(=O)O)C1CSCCNC(=O)CN(CCCCNC(=O)c1cccc(O)c1O)C(=O)c1cccc(O)c1O)c1cnc(N)s1)C(=O)O (racemic) [Compound 42]	µM	=	0.4

* * *

Values of MIC reported for A. baumannii ATCC17978-PNT-165 appear below.
Where a name gives a salt, the structure may show the parent alone.
property: MIC (µM)

compound	test_value
C[C@H]1[C@H](NC(=O)/C(=N\OC(C)(C)C(=O)O)c2csc(N)n2)C(=O)N1S(=O)(=O)O [Aztreonam, aztreonam, reference compound]	12.5
CC(C)(O/N=C(\C(=O)NC1C(=O)N(S(=O)(=O)O)C1CSCCNC(=O)CN(CCCCNC(=O)c1cccc(O)c1O)C(=O)c1cccc(O)c1O)c1cnc(N)s1)C(=O)O (racemic) [Compound 42]	0.4
CO/N=C(\C(=O)NC1C(=O)N(S(=O)(=O)O)[C@H]1CSCCN)c1cnc(N)s1 (stereo partly shown) [Compound 35, potassium salt]	50
CC(C)(O/N=C(\C(=O)NC1C(=O)N(S(=O)(=O)O)[C@H]1CSCCN)c1cnc(N)s1)C(=O)O (mixture of isomers) [Compound 39, potassium salt]	50
